Biological target: CDK1/cyclin B (Homo sapiens)
Sequence (P06493 4-287 limits assumed): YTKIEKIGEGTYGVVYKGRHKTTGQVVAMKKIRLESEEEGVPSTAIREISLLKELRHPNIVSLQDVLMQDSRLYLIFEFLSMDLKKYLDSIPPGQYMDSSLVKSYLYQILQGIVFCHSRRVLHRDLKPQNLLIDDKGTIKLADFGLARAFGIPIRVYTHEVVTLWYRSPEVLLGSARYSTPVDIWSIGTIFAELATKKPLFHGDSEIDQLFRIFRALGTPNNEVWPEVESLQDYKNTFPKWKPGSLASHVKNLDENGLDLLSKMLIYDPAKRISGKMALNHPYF
Sequence (P14635 whole entry partner): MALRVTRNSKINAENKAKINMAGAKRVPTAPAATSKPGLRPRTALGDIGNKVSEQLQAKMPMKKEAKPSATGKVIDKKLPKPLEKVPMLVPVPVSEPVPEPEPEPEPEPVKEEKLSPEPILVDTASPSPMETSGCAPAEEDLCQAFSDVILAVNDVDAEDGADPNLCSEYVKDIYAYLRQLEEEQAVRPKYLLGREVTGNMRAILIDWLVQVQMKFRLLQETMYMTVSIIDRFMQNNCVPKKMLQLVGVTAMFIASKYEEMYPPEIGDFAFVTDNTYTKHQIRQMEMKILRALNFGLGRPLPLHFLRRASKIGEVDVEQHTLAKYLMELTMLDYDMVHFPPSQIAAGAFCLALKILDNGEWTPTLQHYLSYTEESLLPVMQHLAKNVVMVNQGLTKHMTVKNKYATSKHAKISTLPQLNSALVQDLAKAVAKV
Assay: Kinase IC50, 33P labeled isotope method
Format: biochemical
Details: 20 μM ATP; read-out: IC50* CDK1/cyclin B
The threshold is 90 nM. Values of IC50 beneath it are tagged Fulfilled; values meeting or exceeding it are tagged Not fulfilled.

Please review the following examples before continuing.
| line_notation | subject_of_test | assigned_class |
| --- | --- | --- |
| CN1CCN(Cc2ccc(NC(=O)c3n[nH]cc3Nc3ncnc4occc34)cc2)CC1 | CDK1/cyclin B (Homo sapiens) | Not fulfilled |
| Cc1cc2c(Nc3c[nH]nc3C(=O)Nc3ccc(CN4CCN(C)CC4)cc3)ncnc2s1 | CDK1/cyclin B (Homo sapiens) | Fulfilled |

Req: Strictly below 90 nM: is that where IC50 of `CN1CCN(Cc2ccc(NC(=O)c3n[nH]cc3Nc3ncnc4sccc34)cc2)CC1` sits?
Resp: Fulfilled

###

Reported concentration at 8 h is given for each of the following compounds.
Assay: Pharmacokinetics after single oral dose in rats
Format: in vivo, Wistar rat
Conditions: male, Wistar, rat, plasma, po, 30 mg/kg, mean of rats, oral 30 mg/kg, time 8 h; read-out: Plasma concentration, mean
Entry format: amount then unit.

| line_notation | concentration at 8 h |
| --- | --- |
| CN1CCN(Cc2ccc(NC(=O)c3n[nH]cc3Nc3ncnc4sccc34)cc2)CC1 | 195 ng/mL |

Req: concentration at 8 h for `O=C(Nc1ccc(CN2CCOCC2)cc1)c1n[nH]cc1Nc1ncnc2sccc12` ?
Resp: 162 ng/mL

###

Biological target: ERK7/MAPK15 (Homo sapiens)
Sequence (Q8TD08 13-304 limits assumed): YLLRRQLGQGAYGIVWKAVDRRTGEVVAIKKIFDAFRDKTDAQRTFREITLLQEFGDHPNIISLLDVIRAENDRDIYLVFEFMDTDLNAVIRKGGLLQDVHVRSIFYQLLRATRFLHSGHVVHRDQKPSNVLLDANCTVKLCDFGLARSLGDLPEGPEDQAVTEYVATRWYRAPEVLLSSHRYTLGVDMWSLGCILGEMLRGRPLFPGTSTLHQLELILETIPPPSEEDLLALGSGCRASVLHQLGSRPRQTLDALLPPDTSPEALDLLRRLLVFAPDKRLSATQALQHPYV
Assay: Kinase IC50, 33P labeled isotope method
Type: biochemical
Reported pIC50 is given for each of the following molecules.
Note on units: pIC50 is unitless, being -log10 of a concentration expressed in mol/L.

| line_notation | pIC50 |
| --- | --- |
| CN1CCN(Cc2ccc(NC(=O)c3n[nH]cc3Nc3ncnc4[nH]ccc34)cc2)CC1 | 8.15 |

--- query ---
Req: pIC50 for `CN1CCN(Cc2ccc(NC(=O)c3n[nH]cc3Nc3ncnc4sccc34)cc2)CC1` ?
Resp: 8.15

###

Reported pIC50 is given for each of the following molecules.
Biological target: CDK5/p35 (Homo sapiens)
Sequence (Q00535 4-286 limits assumed): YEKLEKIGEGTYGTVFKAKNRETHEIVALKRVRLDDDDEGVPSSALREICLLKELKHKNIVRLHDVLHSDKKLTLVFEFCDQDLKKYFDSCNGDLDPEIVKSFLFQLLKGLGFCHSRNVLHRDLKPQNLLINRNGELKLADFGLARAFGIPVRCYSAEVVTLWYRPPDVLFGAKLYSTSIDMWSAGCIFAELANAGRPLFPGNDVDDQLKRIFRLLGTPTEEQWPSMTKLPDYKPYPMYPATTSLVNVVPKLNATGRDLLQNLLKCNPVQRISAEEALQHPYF
Sequence (Q15078 whole entry partner): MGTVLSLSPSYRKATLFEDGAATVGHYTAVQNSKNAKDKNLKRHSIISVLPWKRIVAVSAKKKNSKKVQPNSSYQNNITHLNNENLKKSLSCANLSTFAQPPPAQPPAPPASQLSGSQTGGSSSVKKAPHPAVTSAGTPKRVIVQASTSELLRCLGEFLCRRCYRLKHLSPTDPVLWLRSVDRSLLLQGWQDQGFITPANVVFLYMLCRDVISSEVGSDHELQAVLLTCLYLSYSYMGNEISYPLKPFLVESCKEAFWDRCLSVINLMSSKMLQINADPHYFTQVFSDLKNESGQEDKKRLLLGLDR
Assay: Kinase IC50, 33P labeled isotope method
Type: biochemical
Details: 20 μM ATP; read-out: IC50* CDK5/p35
Note on units: pIC50 is unitless, being -log10 of a concentration expressed in mol/L.

| line_notation | subject_of_test | result_value |
| --- | --- | --- |
| Cc1cc2c(Nc3c[nH]nc3C(=O)Nc3ccc(CN4CCN(C)CC4)cc3)ncnc2s1 | CDK5/p35 (Homo sapiens) | 7.89 |

Req: pIC50 for `Cc1cc2c(Nc3c[nH]nc3C(=O)Nc3ccc(CN4CCN(C)CC4)cc3)nccc2s1` ?
Resp: 7.82

Req: Repeat with `CN1CCN(Cc2ccc(NC(=O)c3n[nH]cc3Nc3ncnc4sccc34)cc2)CC1`
Resp: 7.82

Req: Repeat with `Cc1cc2c(Nc3c[nH]nc3C(=O)Nc3ccc(CN4CCN(C)CC4)cc3)ncnc2[nH]1`
Resp: 7.82

Req: Repeat with `CN1CCN(Cc2ccc(NC(=O)c3n[nH]cc3Nc3ncnc4occc34)cc2)CC1`
Resp: 7.80
